test system: MCF7; assay: Cytotoxicity against human MCF7 cells after 72 hrs by alamar blue assay; format: functional, cell-based; details: MCF7, 72 h
pIC50: −log10 of the molar value.
Field: pIC50. Provide a value for each of the compounds that follow.

(Q) # lookup: pIC50 of `COc1ccc2c(c1O)[C@H](Cc1ccc(O)cc1)NCC2`
(A) < 4.00

(Q) Field entry: C[N@@+]1([O-])CCc2cc3c(c4c2[C@H]1Cc1ccccc1-4)OCO3 (stereo in doubt; 3)
(A) < 4.00

(Q) Field entry: `COc1ccc2c(c1O)[C@H](Cc1ccc(O)cc1)N(C)CC2`
(A) < 4.00

(Q) Same question for `CC(=O)O[C@H]1C(=O)[C@@]2(C)[C@H]([C@H](OC(=O)c3ccccc3)[C@]3(O)C[C@H](OC(=O)[C@H](O)[C@@H](NC(=O)c4ccccc4)c4ccccc4)C(C)=C1C3(C)C)[C@]1(OC(C)=O)CO[C@@H]1C[C@@H]2O` please.
(A) 8.36

(Q) Then what about the compound `COc1cc2c(cc1O)C[C@H]1c3c(cc(O)c(OC)c3-2)CCN1C` ?
(A) < 4.00

(Q) `CN1CCc2cc3c(c4c2[C@H]1Cc1ccccc1-4)OCO3` , same question.
(A) 4.75

(Q) Further, for `COc1cc2c(cc1O)C[C@@H]1NCCc3cc(O)c(OC)c-2c31` ?
(A) < 4.00

(Q) Entry `Oc1ccc2c(c1)-c1c3c(cc4c1[C@@H](C2)NCC4)OCO3` please
(A) 4.56

---

assay: Cytotoxicity against human NFF at 100 uM after 72 hrs by alamar blue assay; assay type: cell-based; conditions: NFF cells, read-out: INH
Readout Name: cytotoxicity at 72 h, 100 µM
Report as: number unit

(Q) Entry under review: C[N@@+]1([O-])CCc2cc3c(c4c2[C@H]1Cc1ccccc1-4)OCO3 (stereo in doubt; 3) . Reported cytotoxicity at 72 h, 100 µM?
(A) 83%
